target.or.test.system: T1, AFP p26 (human, UniProt P02771 381-609)
T1 construct: The construct used is not described
T1 sequence: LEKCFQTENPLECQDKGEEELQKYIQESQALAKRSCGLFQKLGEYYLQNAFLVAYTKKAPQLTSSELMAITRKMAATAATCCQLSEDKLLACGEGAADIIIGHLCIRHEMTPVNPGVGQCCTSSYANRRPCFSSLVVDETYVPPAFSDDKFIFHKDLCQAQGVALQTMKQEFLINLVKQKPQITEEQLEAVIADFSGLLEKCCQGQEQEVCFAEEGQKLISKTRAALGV
run.description: phage ELISA, A450 target/A450 IgG1-Fc
attribute.measured: ELISA_avg (ratio)
Just the number in ratio, nothing appended.

Solved cases (3 shown):
[
  {
    "binder": "SEQ ID NO 781 (designed binder) MGSWTEFEKRLHAIDYRLWALGGSEAELAAFEKEIAAFESELQAYKGKGNPEVEDLREHAAAIRHWLQAYRHN",
    "measurement.units": "ratio",
    "result.value": 17.1
  },
  {
    "binder": "SEQ ID NO 746 (designed binder) MGSWHEFMERLIAIDGRLWALGGSEAELAAFEKEIAAFESELQAYKGKGNPEVEYLRFVAAFIRDVLQAYRHN",
    "measurement.units": "ratio",
    "result.value": 17.9
  },
  {
    "binder": "SEQ ID NO 855 (designed binder) MGSWTHFKEDLAHIKDRLEALGGSEAELAAFELDIAWFEFMLQYYKGKGNPEVEALRKEAAAIRDELQAYRHN",
    "measurement.units": "ratio",
    "result.value": 30.4
  }
]

ELISA_avg measured on SEQ ID NO 865 (designed binder) MGSWSVFKDDLAQIKDRLEALGGSEAELAQFELDIAWFEYVLQFYKGKGNPEVEALRKEAAAIRDELQAYRHN = 30.3
